- Assay System: Protein cereblon/Cyclin-dependent kinase 6 (Homo sapiens, UniProt Q00534+Q96SW2)
- Sequence (Q00534 whole entry): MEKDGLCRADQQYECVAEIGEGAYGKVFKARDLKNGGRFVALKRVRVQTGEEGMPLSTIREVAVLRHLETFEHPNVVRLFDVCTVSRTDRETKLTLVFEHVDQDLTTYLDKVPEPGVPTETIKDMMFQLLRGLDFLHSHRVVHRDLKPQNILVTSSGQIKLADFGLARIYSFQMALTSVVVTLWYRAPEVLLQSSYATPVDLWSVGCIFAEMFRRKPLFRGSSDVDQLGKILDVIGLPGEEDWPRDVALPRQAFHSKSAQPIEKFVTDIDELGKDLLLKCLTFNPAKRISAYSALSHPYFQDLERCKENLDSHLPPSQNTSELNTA
- Sequence (Q96SW2 whole entry): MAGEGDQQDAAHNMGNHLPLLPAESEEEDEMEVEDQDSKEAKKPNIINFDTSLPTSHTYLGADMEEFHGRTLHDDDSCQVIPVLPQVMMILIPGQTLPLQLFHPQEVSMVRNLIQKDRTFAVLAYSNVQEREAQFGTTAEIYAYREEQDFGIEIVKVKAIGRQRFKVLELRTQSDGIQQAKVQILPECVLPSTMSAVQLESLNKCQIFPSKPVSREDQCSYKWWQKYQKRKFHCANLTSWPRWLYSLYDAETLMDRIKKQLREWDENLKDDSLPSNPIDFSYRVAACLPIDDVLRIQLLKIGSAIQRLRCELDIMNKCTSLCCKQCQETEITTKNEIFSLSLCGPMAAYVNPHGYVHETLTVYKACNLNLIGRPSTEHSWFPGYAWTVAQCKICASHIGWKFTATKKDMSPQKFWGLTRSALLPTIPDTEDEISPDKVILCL
- Measurement Notes: Induction of CRBN-mediated CDK6 degradation in human U251 cells after 24 hrs by immunoblot analysis
- Assay type: cell-based
Give DC50 for every item shown.
Give bare numbers, in nM.

Compound	Reading
CC(=O)c1c(C)c2cnc(Nc3ccc(N4CCN(CC(=O)NCCOCCNc5cccc6c5C(=O)N(C5CCC(=O)NC5=O)C6=O)CC4)cn3)nc2n(C2CCCC2)c1=O (centres undefined)	1.1
CC(=O)c1c(C)c2cnc(Nc3ccc(N4CCN(Cc5cn(CCCCC#Cc6cccc7c6C(=O)N(C6CCC(=O)NC6=O)C7=O)nn5)CC4)cn3)nc2n(C2CCCC2)c1=O (centres undefined)	81.6
CC(=O)c1c(C)c2cnc(Nc3ccc(N4CCN(CCOCCOCCNc5cccc6c5C(=O)N(C5CCC(=O)NC5=O)C6=O)CC4)cn3)nc2n(C2CCCC2)c1=O (centres undefined)	1.6

Then there is this compound:
Give its DC50 value. Item: CC(=O)c1c(C)c2cnc(Nc3ccc(N4CCN(Cc5cn(CCCCCCc6cccc7c6C(=O)N(C6CCC(=O)NC6=O)C7=O)nn5)CC4)cn3)nc2n(C2CCCC2)c1=O (centres undefined)
1.7
